- System: Aeromonas 3 (Aeromonas popoffii)
- measurement.protocol: relative growth (AUC of 72 h growth curve relative to DMSO control, dAUC) (ratio); higher = more growth (less inhibition), active = hit call of the paper
- conditions.used: 20 µM
Listed below: relative growth values for each entry.
Give only the figure.

Known relative growth results, listed for orientation:
CCNc1nc(Cl)nc(NC(C)C)n1    0.992
COP(=S)(OC)Oc1ccc(SC)c(C)c1    1.03
Fc1ccc(Oc2ccnc3cc(Cl)cc(Cl)c23)cc1    1
O=[N+]([O-])/N=C1\NCCN1Cc1ccc(Cl)nc1    0.999
Cc1nc(N(C)C)nc(OC(=O)N(C)C)c1C    0.968

Entry COC(=O)N(OC)c1ccccc1COc1ccn(-c2ccc(Cl)cc2)n1 : relative growth on Aeromonas 3 (Aeromonas popoffii) = 0.979

Entry CCN(CC)c1nc(C)cc(OP(=S)(OC)OC)n1 : relative growth on Aeromonas 3 (Aeromonas popoffii) = 1.02

Entry CCCC1COC(Cn2cncn2)(c2ccc(Cl)cc2Cl)O1 (configuration not stated) : relative growth on Aeromonas 3 (Aeromonas popoffii) = 0.971

Entry O=C1C2(Cl)C3(Cl)C4(Cl)C(Cl)(Cl)C5(Cl)C3(Cl)C1(Cl)C5(Cl)C24Cl (configuration not stated) : relative growth on Aeromonas 3 (Aeromonas popoffii) = 0.99

Entry Cc1cc(C)nc(Nc2ccccc2)n1 : relative growth on Aeromonas 3 (Aeromonas popoffii) = 1.07

Entry CCc1nn(C)c(C(=O)NCc2ccc(Oc3ccc(C)cc3)cc2)c1Cl : relative growth on Aeromonas 3 (Aeromonas popoffii) = 1.05

Entry O=C(NC(=O)c1c(F)cccc1F)Nc1ccc(Cl)cc1 : relative growth on Aeromonas 3 (Aeromonas popoffii) = 0.986
